Below, each of the compounds is paired with its reported IC50 value.
molecular target: recombinant human acetylcholinesterase, rHsAChE (Homo sapiens); assay: biochemical; details: Table S4, DOS-A (IC50 values; qAC50); read-out: rHsAChE qAC50
Sequence (P22303 32-614): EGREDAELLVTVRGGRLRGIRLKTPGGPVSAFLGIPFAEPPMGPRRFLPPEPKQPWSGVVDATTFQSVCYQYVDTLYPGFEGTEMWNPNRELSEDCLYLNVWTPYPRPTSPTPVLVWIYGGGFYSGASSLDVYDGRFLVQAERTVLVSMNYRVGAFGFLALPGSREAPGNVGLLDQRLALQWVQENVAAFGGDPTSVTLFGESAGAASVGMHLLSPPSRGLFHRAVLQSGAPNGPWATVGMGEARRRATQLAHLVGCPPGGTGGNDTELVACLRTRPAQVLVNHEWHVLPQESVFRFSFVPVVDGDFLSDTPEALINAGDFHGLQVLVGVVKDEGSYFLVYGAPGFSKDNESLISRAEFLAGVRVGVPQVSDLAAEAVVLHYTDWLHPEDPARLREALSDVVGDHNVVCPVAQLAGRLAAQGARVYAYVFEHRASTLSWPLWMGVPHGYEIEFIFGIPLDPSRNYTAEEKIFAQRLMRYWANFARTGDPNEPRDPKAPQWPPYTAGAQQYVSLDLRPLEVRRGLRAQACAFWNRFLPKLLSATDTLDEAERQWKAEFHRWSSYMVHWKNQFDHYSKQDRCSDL

[
  {
    "compound": "CC(C)(C)[S+]([O-])N1Cc2cc(C(=O)NCCN3CCCC3)nc(-c3cccc(-c4ccc(C#N)cc4)c3)c2C1CCO (centres unmarked)",
    "IC50 (µM)": 35.5
  },
  {
    "compound": "COc1cccc(C#Cc2ccc([C@@H]3[C@@H](C#N)N(C(=O)c4ccccn4)[C@H]3CO)cc2)c1",
    "IC50 (µM)": 31.3
  }
]

###

Below, each of the molecules is paired with its reported Inhibition (%) (Average) value.
target: rSmTAChE (Schistosoma mansoni); experiment: biochemical;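 for Inhibition (%) (Average): mostly 20 µM final but a few compounds at 5 or 10 µM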
parameterMeasured: Inhibition (%) (Average)

[
  {
    "molecule": "O=C1[C@@H]2[C@H]3CC[C@H](C3)[C@@H]2C(=O)N1C[C@@H]1CCCC[C@H]1CN1CCN(c2nsc3ccccc23)CC1",
    "assayResult": 77.24
  },
  {
    "molecule": "COc1ccc(C#Cc2ccc3c(c2)O[C@@H](CN(C)S(=O)(=O)c2ccccc2F)[C@@H](C)CN([C@@H](C)CO)S3(=O)=O)cc1",
    "assayResult": 63.03
  },
  {
    "molecule": "CCCCC/C=C\\C/C=C\\C/C=C\\C/C=C\\CCCC(=O)Nc1ccc(O)cc1",
    "assayResult": 74.15
  },
  {
    "molecule": "NC(=O)N/N=C/c1ccc(Oc2ccc(F)cc2)cc1",
    "assayResult": 75.84
  },
  {
    "molecule": "COc1ccc(C#Cc2ccc3c(c2)O[C@@H](CN(C)S(=O)(=O)c2ccccc2F)[C@@H](C)CN([C@H](C)CO)S3(=O)=O)cc1",
    "assayResult": 71.37
  },
  {
    "molecule": "Clc1ccc(C(c2ccccc2Cl)C(Cl)Cl)cc1 (stereo not shown)",
    "assayResult": 71.30
  },
  {
    "molecule": "CSc1cc2c(cc1C(F)(F)F)N(C(=O)Nc1cccnc1)CC2",
    "assayResult": 86.29
  },
  {
    "molecule": "COc1ccc(NC(=O)Nc2ccc3c(c2)[C@@H]2C[C@H](CC(=O)NCC4CC4)O[C@@H](CO)[C@@H]2O3)cc1",
    "assayResult": 89.37
  },
  {
    "molecule": "C=CCNc1nc(NCC=C)nc(N2CCN(C(c3ccc(F)cc3)c3ccc(F)cc3)CC2)n1",
    "assayResult": 71.59
  },
  {
    "molecule": "C[C@]12CCC3c4ccc(OC(=O)c5ccccc5)cc4CCC3C1CC[C@@H]2O (stereo partly shown)",
    "assayResult": 66.55
  },
  {
    "molecule": "C[C@]12CCC3c4ccc(O)cc4CCC3C1CC[C@@H]2OC(=O)CCC1CCCC1 (stereo partly shown)",
    "assayResult": 88.63
  },
  {
    "molecule": "COCCOc1ccc2c(c1)ncn2-c1ccc2cccc(N3CCC(N)CC3)c2n1",
    "assayResult": 79.32
  },
  {
    "molecule": "CCCC(=O)Nc1ccc2c(c1)OC[C@@H](C)N(Cc1cc(-c3ccccc3)on1)C[C@@H](C)[C@H](OC)CN(C)C2=O",
    "assayResult": 67.01
  },
  {
    "molecule": "CCCCCCCCc1ccc(CCC(N)(CO)CO)cc1",
    "assayResult": 70.74
  },
  {
    "molecule": "O=C(C[C@@H]1C[C@@H]2c3cc(NC(=O)Nc4ccccc4)ccc3O[C@@H]2[C@@H](CO)O1)NC1CCCC1",
    "assayResult": 91.31
  },
  {
    "molecule": "Clc1ccc(CSC(Cn2ccnc2)c2ccc(Cl)cc2Cl)cc1 (stereo not shown)",
    "assayResult": 65.58
  },
  {
    "molecule": "N#C[C@H]1[C@H](c2ccc(C#CC3CC3)cc2)[C@H](CO)N1C(=O)Cc1ccccn1",
    "assayResult": 63.26
  },
  {
    "molecule": "O=C(O)CCc1cc(C(=O)c2ccc(OC3CCCC3)cc2O)ccc1OCc1ccc2c(=O)[nH]oc2c1",
    "assayResult": 87.31
  },
  {
    "molecule": "COc1ccc(C#Cc2ccc3c(c2)O[C@H](CN(C)S(=O)(=O)c2ccccc2F)[C@H](C)CN([C@@H](C)CO)S3(=O)=O)cc1",
    "assayResult": 64.93
  },
  {
    "molecule": "O=c1sn(-c2cccc3ccccc23)c(=O)n1Cc1ccccc1",
    "assayResult": 88.72
  },
  {
    "molecule": "COC(=O)CCSCc1ccc(-c2onc(C)c2NC(=O)OC(C)c2ccccc2Cl)cc1 (stereo not shown)",
    "assayResult": 67.17
  },
  {
    "molecule": "CC1(C)CCC(C)(C)c2cc(C#Cc3ccc(C(=O)O)cc3)ccc21",
    "assayResult": 66.58
  },
  {
    "molecule": "C[C@H]1[C@H](C)CC[C@]2(C(=O)O)CC[C@]3(C)C(=CC[C@@H]4[C@@]5(C)CC[C@H](O)C(C)(C)[C@@H]5CC[C@]43C)[C@H]12",
    "assayResult": 75.09
  },
  {
    "molecule": "C#C[C@]1(OC(C)=O)CC[C@H]2[C@@H]3CCC4=C[C@@H](OC(C)=O)CC[C@@H]4[C@H]3CC[C@@]21C",
    "assayResult": 94.91
  },
  {
    "molecule": "CC(C)(C#N)c1ccc(N2C(=O)OCc3cnc4ccc(-c5cnc6ccccc6c5)cc4c32)cc1",
    "assayResult": 72.65
  },
  {
    "molecule": "CCCC#Cc1ccc([C@H]2[C@@H](CO)N3C(=O)CN(S(=O)(=O)c4ccccc4C)C[C@@H]23)cc1",
    "assayResult": 79.61
  },
  {
    "molecule": "COc1ccc(C#Cc2ccc3c(c2)O[C@H](CN(C)S(=O)(=O)c2ccccc2F)[C@@H](C)CN([C@H](C)CO)S3(=O)=O)cc1",
    "assayResult": 74.07
  },
  {
    "molecule": "CC(C)=CCC/C(C)=C/CC/C(C)=C/CSc1ccccc1C(=O)O",
    "assayResult": 76.52
  }
]

###

target: rSmTAChE (Schistosoma mansoni, UniProt A0A3Q0KMM5); test: biochemical;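 for Inhibition (%) Replicate B: mostly 20 µM final but a few compounds at 5 or 10 µM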
Sequence (A0A3Q0KMM5 27-661 limits assumed): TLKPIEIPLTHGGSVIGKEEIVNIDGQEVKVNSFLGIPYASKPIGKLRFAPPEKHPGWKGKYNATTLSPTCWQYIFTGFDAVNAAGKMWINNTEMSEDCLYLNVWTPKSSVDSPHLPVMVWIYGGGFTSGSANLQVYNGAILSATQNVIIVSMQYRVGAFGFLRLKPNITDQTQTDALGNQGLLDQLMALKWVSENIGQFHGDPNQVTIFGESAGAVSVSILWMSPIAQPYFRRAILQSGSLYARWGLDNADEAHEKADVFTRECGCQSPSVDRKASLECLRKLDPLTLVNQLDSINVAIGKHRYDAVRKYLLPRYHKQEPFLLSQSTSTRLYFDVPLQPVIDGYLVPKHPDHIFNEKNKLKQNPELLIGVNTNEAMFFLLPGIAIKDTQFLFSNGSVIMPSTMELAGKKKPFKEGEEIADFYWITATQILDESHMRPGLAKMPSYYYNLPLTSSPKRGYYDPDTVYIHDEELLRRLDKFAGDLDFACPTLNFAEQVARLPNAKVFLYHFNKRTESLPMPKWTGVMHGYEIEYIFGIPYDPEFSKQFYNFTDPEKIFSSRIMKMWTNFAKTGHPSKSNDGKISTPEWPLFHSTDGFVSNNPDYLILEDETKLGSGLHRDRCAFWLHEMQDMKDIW
Decide using Inhibition (%) Replicate B: a value greater than or equal to 80% is YES, a smaller one is NO.

[
  {
    "compound": "O=C(C[C@H]1C[C@H]2c3cc(NC(=O)NC4CCCC4)ccc3O[C@H]2[C@@H](CO)O1)NCc1ccccc1F",
    "testedSystem": "rSmTAChE (Schistosoma mansoni, UniProt A0A3Q0KMM5)",
    "assignedCategory": "YES"
  },
  {
    "compound": "CCCCC(=O)O[C@H]1CC[C@H]2[C@@H]3CCc4cc(O)ccc4[C@H]3CC[C@]12C",
    "testedSystem": "rSmTAChE (Schistosoma mansoni, UniProt A0A3Q0KMM5)",
    "assignedCategory": "NO"
  },
  {
    "compound": "N.N.[Cl][Pt][Cl] [Cisplatin, reference compound]",
    "testedSystem": "rSmTAChE (Schistosoma mansoni, UniProt A0A3Q0KMM5)",
    "assignedCategory": "YES"
  },
  {
    "compound": "CC(C)(C)c1ccc(CN2CCN(C(c3ccccc3)c3ccc(Cl)cc3)CC2)cc1 (stereo not shown)",
    "testedSystem": "rSmTAChE (Schistosoma mansoni, UniProt A0A3Q0KMM5)",
    "assignedCategory": "YES"
  },
  {
    "compound": "COc1ccc(C#Cc2ccc3c(c2)O[C@@H](CN(C)S(=O)(=O)c2ccccc2F)[C@@H](C)CN([C@H](C)CO)S3(=O)=O)cc1",
    "testedSystem": "rSmTAChE (Schistosoma mansoni, UniProt A0A3Q0KMM5)",
    "assignedCategory": "NO"
  },
  {
    "compound": "COc1ccc(C#Cc2ccc3c(c2)O[C@H](CN(C)S(=O)(=O)c2ccccc2F)[C@@H](C)CN([C@H](C)CO)S3(=O)=O)cc1",
    "testedSystem": "rSmTAChE (Schistosoma mansoni, UniProt A0A3Q0KMM5)",
    "assignedCategory": "NO"
  }
]

###

biological target: recombinant human acetylcholinesterase, rHsAChE (Homo sapiens); assay: biochemical; details: Table 1; Inactive = inactive at the maximum tested concentration (40 µM); read-out: IC50 (µM) rHsAChE

[
  {
    "compound": "CCN(c1ccccc1)c1cc(=NC)n(C)c(C)n1 [ZD-7288, reference compound]",
    "IC50": "> 19.5 µM"
  }
]
